experiment: The drug is tested on Clostridium scindens strain: ATCC35704 for biotransformation. The drug concentrations were measured before and after a 12-h incubation by liquid-chromatography-coupled mass spectrometry (LC–MS); conditions: 2 µM
Parameter: Bacterial Biotransformation

As a guide, the following entries are already answered.
COc1ccc2c3c1O[C@H]1C[C@@H](O)C=C[C@@]31CCN(C)C2 :: Compound NOT metabolized
CN1CCC(=C2c3ccccc3CC(=O)c3sccc32)CC1.O=C(O)/C=C/C(=O)O [KETOTIFEN FUMARATE] :: Compound NOT metabolized
COC1=CC(=O)C[C@@H](C)[C@]12Oc1c(Cl)c(OC)cc(OC)c1C2=O :: Compound NOT metabolized
CCCCC(=O)N(Cc1ccc(-c2ccccc2-c2nnn[nH]2)cc1)[C@H](C(=O)O)C(C)C :: Compound NOT metabolized

Query block: Which Bacterial Biotransformation value belongs to CCC(COC(=O)c1cc(OC)c(OC)c(OC)c1)(c1ccccc1)N(C)C.O=C(O)/C=C\C(=O)O (stereo not drawn) ?
Result block: Compound metabolized

Query block: Request: COc1ccc(/C=C/C(=O)Nc2ccccc2C(=O)O)cc1OC
Result block: Compound NOT metabolized

Query block: Entry CC(NC(C)(C)C)C(=O)c1cccc(Cl)c1 (stereo not drawn) please
Result block: Compound NOT metabolized

Query block: Please give the result for CC(C)c1nc(CN(C)C(=O)N[C@H](C(=O)N[C@@H](Cc2ccccc2)C[C@H](O)[C@H](Cc2ccccc2)NC(=O)OCc2cncs2)C(C)C)cs1 too.
Result block: Compound NOT metabolized

Query block: CC(C)(C)NCC(O)COc1cccc2c1CC(O)C(O)C2 (stereo not drawn) , same question.
Result block: Compound NOT metabolized

###

assay: The drug is tested on Bacteroides fragilis strain: HMW615 for biotransformation. The drug concentrations were measured before and after a 12-h incubation by liquid-chromatography-coupled mass spectrometry (LC–MS); conditions: 2 µM
Parameter: Bacterial Biotransformation

Take a look at these entries with their results.
CCN(CC)CCNC(=O)c1ccc(NC(C)=O)cc1 [ACECAINIDE] :: Compound NOT metabolized
CC(=O)OCC(CCn1cnc2cnc(N)nc21)COC(C)=O :: Compound metabolized
CC(=O)O[C@]1(C(C)=O)CC[C@H]2[C@@H]3C=C(C)C4=CC(=O)CC[C@]4(C)[C@H]3CC[C@@]21C [MEGESTROL ACETATE] :: Compound metabolized
Cc1nc(-c2ccc(OCC(C)C)c(C#N)c2)sc1C(=O)O :: Compound NOT metabolized
CCN(C(C)=O)c1cccc(-c2ccnc3c(C#N)cnn23)c1 :: Compound metabolized
CCN(CC)CCNC(=O)c1cc(Cl)c(N)cc1OC [METOCLOPRAMIDE] :: Compound NOT metabolized

Query block: Look up Bacterial Biotransformation for this compound: CCC(COC(=O)c1cc(OC)c(OC)c(OC)c1)(c1ccccc1)N(C)C.O=C(O)/C=C\C(=O)O (configuration not stated)
Result block: Compound NOT metabolized

Query block: Subsequent entry: COc1ccccc1OCC(O)COC(N)=O (configuration not stated)
Result block: Compound NOT metabolized

Query block: Continue with C=CC[C@@H]1/C=C(\C)C[C@H](C)C[C@H](OC)[C@H]2O[C@@](O)(C(=O)C(=O)N3CCCC[C@H]3C(=O)O[C@H](/C(C)=C/[C@@H]3CC[C@@H](O)[C@H](OC)C3)[C@H](C)[C@@H](O)CC1=O)[C@H](C)C[C@@H]2OC.O
Result block: Compound NOT metabolized

Query block: Follow-up entry: OCCN(CCO)c1nc(N2CCCCC2)c2nc(N(CCO)CCO)nc(N3CCCCC3)c2n1
Result block: Compound NOT metabolized

Query block: Try O=C1N=C([O-])NC1(c1ccccc1)c1ccccc1.[Na+] [PHENYTOIN SODIUM] next.
Result block: Compound NOT metabolized

Query block: // query: CNNCc1ccc(C(=O)NC(C)C)cc1
Result block: Compound metabolized

Query block: How about this compound: CC(C)[C@H]1CC[C@H](C(=O)N[C@H](Cc2ccccc2)C(=O)O)CC1 [NATEGLINIDE]
Result block: Compound metabolized

Query block: For COc1ccc2cc([C@H](C)C(=O)O)ccc2c1 then?
Result block: Compound metabolized

Query block: Please give the result for COCCc1ccc(OCC(O)CNC(C)C)cc1.COCCc1ccc(OCC(O)CNC(C)C)cc1.O=C(O)C(O)C(O)C(=O)O (configuration not stated) [METOPROLOL TARTRATE] too.
Result block: Compound NOT metabolized

Query block: Query CC(CN1c2ccccc2Sc2ccccc21)N(C)C (configuration not stated) next
Result block: Compound NOT metabolized

Query block: And what about the compound CC(=O)SCC(Cc1ccccc1)C(=O)NCC(=O)OCc1ccccc1 (configuration not stated) ?
Result block: Compound metabolized

###

assay: The drug is tested on Enterobacter cancerogenus strain: ATCC35316 for biotransformation. The drug concentrations were measured before and after a 12-h incubation by liquid-chromatography-coupled mass spectrometry (LC–MS); details: 2 µM
Parameter: Bacterial Biotransformation

CCCCC1=NC2(CCCC2)C(=O)N1Cc1ccc(-c2ccccc2-c2nnn[nH]2)cc1 :: Compound metabolized
Cc1ccccc1N1C(=O)c2cc(S(N)(=O)=O)c(Cl)cc2NC1C (stereo not drawn) :: Compound NOT metabolized
CCC(C)n1ncn(-c2ccc(N3CCN(c4ccc(OCC5COC(Cn6cncn6)(c6ccc(Cl)cc6Cl)O5)cc4)CC3)cc2)c1=O (stereo not drawn) :: Compound NOT metabolized
CC(C)(C)NC(=O)[C@H]1CC[C@H]2[C@@H]3CC[C@H]4NC(=O)C=C[C@]4(C)[C@H]3CC[C@]12C [FINASTERIDE] :: Compound NOT metabolized

Query block: Value lookup for Bacterial Biotransformation; key = Cc1nc2n(c(=O)c1CCN1CCC(c3noc4cc(F)ccc34)CC1)CCCC2
Result block: Compound metabolized

Query block: Then Br.COc1ccc2c(c1)[C@]13CCCC[C@@H]1[C@H](C2)N(C)CC3.O [DEXTROMETHORPHAN HYDROBROMIDE] ?
Result block: Compound NOT metabolized

Query block: Try COC1=C(OC)C(=O)C(CCCCCCCCCCO)=C(C)C1=O next.
Result block: Compound NOT metabolized

Query block: Lookup COc1ccccc1N1CCN(CC(O)COc2cccc3ccccc23)CC1 (stereo not drawn)
Result block: Compound NOT metabolized

###

test: The drug is tested on Bacteroides vulgatus strain: ATCC8482 for biotransformation. The drug concentrations were measured before and after a 12-h incubation by liquid-chromatography-coupled mass spectrometry (LC–MS); settings: phocaeicola vulgatus, 2 µM
Parameter: Bacterial Biotransformation

CCN(CC)CCOCCOC(=O)C1(c2ccccc2)CCCC1.O=C(O)CC(O)(CC(=O)O)C(=O)O [CARBETAPENTANE CITRATE] :: Compound metabolized
COc1cc2c(c(OC)c1OC)-c1ccc(OC)c(=O)cc1[C@@H](NC(C)=O)CC2 :: Compound metabolized
CCN(CC)CCOC(=O)C1(C2CCCCC2)CCCCC1 :: Compound metabolized

###

experiment: The drug is tested on Bacteroides ovatus strain: ATCC8483 for biotransformation. The drug concentrations were measured before and after a 12-h incubation by liquid-chromatography-coupled mass spectrometry (LC–MS); details: 2 µM
Parameter: Bacterial Biotransformation

# count of solved cases: 5
COC(=O)[C@H]1[C@H]2C[C@@H]3c4[nH]c5cc(OC)ccc5c4CCN3C[C@H]2C[C@@H](OC(=O)c2cc(OC)c(OC)c(OC)c2)[C@@H]1OC :: Compound NOT metabolized
NS(=O)(=O)c1cc2c(cc1Cl)N=C(CSCc1ccccc1)NS2(=O)=O [BENZTHIAZIDE] :: Compound NOT metabolized
CC(C)(C)N.CCC[C@H](N[C@@H](C)C(=O)N1[C@H](C(=O)O)C[C@@H]2CCCC[C@@H]21)C(=O)OCC :: Compound NOT metabolized
C[C@@H](c1ncncc1F)[C@](O)(Cn1cncn1)c1ccc(F)cc1F :: Compound NOT metabolized
O=C1C(CC[S+]([O-])c2ccccc2)C(=O)N(c2ccccc2)N1c1ccccc1 (stereo unspecified) :: Compound NOT metabolized

Query block: Item COc1c(C)c2c(c(O)c1C/C=C(\C)CCC(=O)OCCN1CCOCC1)C(=O)OC2 [MYCOPHENOLATE MOFETIL] has what recorded Bacterial Biotransformation?
Result block: Compound metabolized

Query block: Next entry: CC1OC(OC2C(O)CC(OC3C(O)CC(OC4CCC5(C)C(CCC6C5CCC5(C)C(C7=CC(=O)OC7)CCC65O)C4)OC3C)OC2C)CC(O)C1O (stereo unspecified)
Result block: Compound metabolized

Query block: Also Cc1nc2n(c(=O)c1CCN1CCC(c3noc4cc(F)ccc34)CC1)CCCC2O (stereo unspecified) , if possible.
Result block: Compound metabolized

Query block: Also C=C[C@H]1CN2CC[C@H]1C[C@H]2[C@H](O)c1ccnc2ccc(OC)cc12.C=C[C@H]1CN2CC[C@H]1C[C@H]2[C@H](O)c1ccnc2ccc(OC)cc12.O.O.O=S(=O)(O)O [QUININE SULFATE] ?
Result block: Compound NOT metabolized

Query block: Now try Nc1ccc(/N=N/c2ccccc2)c(N)n1 .
Result block: Compound metabolized

Query block: # iterate: CNC(=C[N+](=O)[O-])NCCSCc1ccc(CN(C)C)o1
Result block: Compound NOT metabolized

Query block: And then O=P1(N(CCCl)CCCl)NCCCO1 (stereo unspecified) [CYCLOPHOSPHAMIDE ANHYDROUS] , what is it?
Result block: Compound NOT metabolized
